test: Aqueous solubility by HPLC-UV; assay type: physicochemical; settings: phosphate buffer, pH 7.4, aqueous with cosolvent or surfactant or cyclodextrin
metric: solubility kinetic at 4 h (µg/mL)

INSERT INTO measurements (compound, unit_of_measurement, value_reported) VALUES
  ('Cc1cc(/C=C/C#N)cc(C)c1Oc1cc(Nc2ccc(C#N)cc2)c(N)cc1C(N)=O [compound 3]', 'µg/mL', 0.63);

----------
assay: Human plasma stability assay; format: in vitro ADME
metric: half-life at 10 μg/mL

INSERT INTO measurements (molecule, metric, value_reported) VALUES
  ('CC(C)NCC(O)COc1cccc2ccccc12 (stereo not shown) [propranolol]', 'half-life at 10 μg/mL', '80 h');
